protocolDetails: in vivo
details: male, CD-1, mouse, in vivo, po, 2 mg/kg
observable: AUC(0-t) (ng·h/mL)
Quick note: give the figure in ng·h/mL, leave out the unit.

-- ask Tell me the measured AUC(0-t) of COc1ccc2c(O[C@H]3CCN4C(=O)N(C)CCCC/C=C\[C@@H]5C[C@@]5(C(=O)NS(=O)(=O)C5(C)CC5)NC(=O)[C@@H]4C3)cc(-c3nc(C(F)(F)F)cs3)nc2c1C , please.
-- reply 1410

###

protocolDetails: clinical
details: human, in vivo, 400 mg, Tmax, single dose 400 mg Fasted, human volunteers
observable: Tmax (h)
Quick note: give the figure in h, leave out the unit.

-- ask Tell me the measured Tmax of COc1ccc2c(O[C@H]3CCN4C(=O)N(C)CCCC/C=C\[C@@H]5C[C@@]5(C(=O)NS(=O)(=O)C5(C)CC5)NC(=O)[C@@H]4C3)cc(-c3nc(C(F)(F)F)cs3)nc2c1C [Compound 52] , please.
-- reply 3

###

protocolDetails: clinical
details: human, in vivo, T1/2, 400 mg per day, PK Day 1
observable: half-life

-- ask Tell me the measured half-life of COc1ccc2c(O[C@H]3CCN4C(=O)N(C)CCCC/C=C\[C@@H]5C[C@@]5(C(=O)NS(=O)(=O)C5(C)CC5)NC(=O)[C@@H]4C3)cc(-c3nc(C(F)(F)F)cs3)nc2c1C , please.
-- reply 12 h

###

protocolDetails: clinical
details: human, in vivo, 200 mg, T1/2, single dose 200 mg, human volunteers
observable: half-life (h)
Quick note: give the figure in h, leave out the unit.

-- ask Tell me the measured half-life of COc1ccc2c(O[C@H]3CCN4C(=O)N(C)CCCC/C=C\[C@@H]5C[C@@]5(C(=O)NS(=O)(=O)C5(C)CC5)NC(=O)[C@@H]4C3)cc(-c3nc(C(F)(F)F)cs3)nc2c1C [Compound 52] , please.
-- reply 26

###

protocolDetails: clinical
details: human, in vivo, 200 mg, Cmax, single dose 200 mg, HCV patients, N = 2
observable: Cmax (ng/mL)
Quick note: give the figure in ng/mL, leave out the unit.

-- ask Tell me the measured Cmax of COc1ccc2c(O[C@H]3CCN4C(=O)N(C)CCCC/C=C\[C@@H]5C[C@@]5(C(=O)NS(=O)(=O)C5(C)CC5)NC(=O)[C@@H]4C3)cc(-c3nc(C(F)(F)F)cs3)nc2c1C , please.
-- reply 1060

###

protocolDetails: clinical
details: human, in vivo, 100 mg, T1/2, single dose 100 mg, human volunteers
observable: half-life

-- ask Tell me the measured half-life of COc1ccc2c(O[C@H]3CCN4C(=O)N(C)CCCC/C=C\[C@@H]5C[C@@]5(C(=O)NS(=O)(=O)C5(C)CC5)NC(=O)[C@@H]4C3)cc(-c3nc(C(F)(F)F)cs3)nc2c1C [Compound 52] , please.
-- reply 24 h

###

protocolDetails: in vitro
Assay type: cell-based
details: fresh mouse hepatocytes, 48 hrs, intracellular ATP
observable: CC50

-- ask Tell me the measured CC50 of COc1ccc2c(O[C@H]3CCN4C(=O)N(C)CCCC/C=C\[C@@H]5C[C@@]5(C(=O)NS(=O)(=O)C5(C)CC5)NC(=O)[C@@H]4C3)cc(-c3nc(C(F)(F)F)cs3)nc2c1C , please.
-- reply > 10 µM

###

protocolDetails: clinical
details: human, in vivo, Cmax, 400 mg per day, PK Day 1
observable: Cmax (ng/mL)
Quick note: give the figure in ng/mL, leave out the unit.

-- ask Tell me the measured Cmax of COc1ccc2c(O[C@H]3CCN4C(=O)N(C)CCCC/C=C\[C@@H]5C[C@@]5(C(=O)NS(=O)(=O)C5(C)CC5)NC(=O)[C@@H]4C3)cc(-c3nc(C(F)(F)F)cs3)nc2c1C , please.
-- reply 1150

###

targetOfAssay: human CYP450 1A2 (Homo sapiens)
Sequence (P05177 1-516): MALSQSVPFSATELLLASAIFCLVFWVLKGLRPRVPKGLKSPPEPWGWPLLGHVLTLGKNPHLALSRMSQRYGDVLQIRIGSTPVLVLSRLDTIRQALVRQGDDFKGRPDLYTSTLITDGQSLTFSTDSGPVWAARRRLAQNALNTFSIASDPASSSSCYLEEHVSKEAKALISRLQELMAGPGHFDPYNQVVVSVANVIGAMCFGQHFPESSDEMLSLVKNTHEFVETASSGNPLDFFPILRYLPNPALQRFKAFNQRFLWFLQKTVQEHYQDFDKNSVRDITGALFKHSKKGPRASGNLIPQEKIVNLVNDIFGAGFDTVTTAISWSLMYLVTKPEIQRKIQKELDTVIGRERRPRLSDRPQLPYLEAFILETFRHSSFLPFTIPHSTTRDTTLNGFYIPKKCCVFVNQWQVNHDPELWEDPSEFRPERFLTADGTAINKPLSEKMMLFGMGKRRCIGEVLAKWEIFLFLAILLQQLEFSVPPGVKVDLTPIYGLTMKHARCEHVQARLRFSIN
observable: IC50

-- ask Tell me the measured IC50 of COc1ccc2c(O[C@H]3CCN4C(=O)N(C)CCCC/C=C\[C@@H]5C[C@@]5(C(=O)NS(=O)(=O)C5(C)CC5)NC(=O)[C@@H]4C3)cc(-c3nc(C(F)(F)F)cs3)nc2c1C , please.
-- reply ≥ 10 µM

###

targetOfAssay: NS3-4A (Con1) (Hepatitis C virus genotype 1b, UniProt Q9WMX2)
Sequence (Q9WMX2 1027-1657): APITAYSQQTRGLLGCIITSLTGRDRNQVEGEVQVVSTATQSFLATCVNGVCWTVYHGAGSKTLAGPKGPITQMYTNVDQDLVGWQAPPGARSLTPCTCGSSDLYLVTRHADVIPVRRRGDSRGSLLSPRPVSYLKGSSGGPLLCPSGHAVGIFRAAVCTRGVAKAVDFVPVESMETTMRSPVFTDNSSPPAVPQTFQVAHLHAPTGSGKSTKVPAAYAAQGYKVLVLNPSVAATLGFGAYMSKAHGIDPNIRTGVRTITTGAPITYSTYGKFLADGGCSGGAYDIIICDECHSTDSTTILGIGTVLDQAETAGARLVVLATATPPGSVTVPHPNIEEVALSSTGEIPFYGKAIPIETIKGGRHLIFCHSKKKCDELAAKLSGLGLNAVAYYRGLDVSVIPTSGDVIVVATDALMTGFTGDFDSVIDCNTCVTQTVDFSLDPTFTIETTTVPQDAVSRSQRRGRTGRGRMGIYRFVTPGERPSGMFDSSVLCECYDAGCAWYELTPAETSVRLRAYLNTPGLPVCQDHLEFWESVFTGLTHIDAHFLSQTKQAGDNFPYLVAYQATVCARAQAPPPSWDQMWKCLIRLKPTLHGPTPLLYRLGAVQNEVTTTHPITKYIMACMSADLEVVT
Sequence (Q9WMX2 1658-1711): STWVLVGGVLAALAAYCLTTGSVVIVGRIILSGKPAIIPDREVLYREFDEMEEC
observable: Kd (nM)
Quick note: give the figure in nM, leave out the unit.

-- ask Tell me the measured Kd of COc1ccc2c(O[C@H]3CCN4C(=O)N(C)CCCC/C=C\[C@@H]5C[C@@]5(C(=O)NS(=O)(=O)C5(C)CC5)NC(=O)[C@@H]4C3)cc(-c3nc(C(F)(F)F)cs3)nc2c1C [Compound 52] , please.
-- reply 0.8

###

protocolDetails: clinical
details: human, in vivo, 100 mg, Cmax, single dose 100 mg, human volunteers
observable: Cmax (ng/mL)
Quick note: give the figure in ng/mL, leave out the unit.

-- ask Tell me the measured Cmax of COc1ccc2c(O[C@H]3CCN4C(=O)N(C)CCCC/C=C\[C@@H]5C[C@@]5(C(=O)NS(=O)(=O)C5(C)CC5)NC(=O)[C@@H]4C3)cc(-c3nc(C(F)(F)F)cs3)nc2c1C [Compound 52] , please.
-- reply 467

###

protocolDetails: clinical
details: human, in vivo, 200 mg, AUC0-∞, single dose 200 mg, HCV patients, N = 2
observable: AUC(0-inf) (ng·h/mL)
Quick note: give the figure in ng·h/mL, leave out the unit.

-- ask Tell me the measured AUC(0-inf) of COc1ccc2c(O[C@H]3CCN4C(=O)N(C)CCCC/C=C\[C@@H]5C[C@@]5(C(=O)NS(=O)(=O)C5(C)CC5)NC(=O)[C@@H]4C3)cc(-c3nc(C(F)(F)F)cs3)nc2c1C , please.
-- reply 13900

###

protocolDetails: clinical
details: human, in vivo, 400 mg, AUC0-∞
observable: AUC(0-inf) (ng·h/mL)
Quick note: give the figure in ng·h/mL, leave out the unit.

-- ask Tell me the measured AUC(0-inf) of COc1ccc2c(O[C@H]3CCN4C(=O)N(C)CCCC/C=C\[C@@H]5C[C@@]5(C(=O)NS(=O)(=O)C5(C)CC5)NC(=O)[C@@H]4C3)cc(-c3nc(C(F)(F)F)cs3)nc2c1C , please.
-- reply 9460

###

protocolDetails: in vivo
details: male, cynomolgus monkey, iv, 2 mg/kg
observable: AUC(0-inf) (ng·h/mL)
Quick note: give the figure in ng·h/mL, leave out the unit.

-- ask Tell me the measured AUC(0-inf) of COc1ccc2c(O[C@H]3CCN4C(=O)N(C)CCCC/C=C\[C@@H]5C[C@@]5(C(=O)NS(=O)(=O)C5(C)CC5)NC(=O)[C@@H]4C3)cc(-c3nc(C(F)(F)F)cs3)nc2c1C , please.
-- reply 9580

###

targetOfAssay: HCV NS3-4A Protease Genotype 1a (Hepatitis C virus genotype 1a)
Construct: recombinant HCV NS3-4A proteases
protocolDetails: HCV protease assay, recombinant NS3-4A genotype 1a
details: mean ± SD, 3 experiments
observable: pIC50
# pIC50 = -log10(concentration in molar units)

-- ask Tell me the measured pIC50 of COc1ccc2c(O[C@H]3CCN4C(=O)N(C)CCCC/C=C\[C@@H]5C[C@@]5(C(=O)NS(=O)(=O)C5(C)CC5)NC(=O)[C@@H]4C3)cc(-c3nc(C(F)(F)F)cs3)nc2c1C [Compound 52] , please.
-- reply 8.96

###

protocolDetails: clinical
details: human, in vivo, 200 mg, AUC0-∞, single dose 200 mg, human volunteers
observable: AUC(0-inf) (ng·h/mL)
Quick note: give the figure in ng·h/mL, leave out the unit.

-- ask Tell me the measured AUC(0-inf) of COc1ccc2c(O[C@H]3CCN4C(=O)N(C)CCCC/C=C\[C@@H]5C[C@@]5(C(=O)NS(=O)(=O)C5(C)CC5)NC(=O)[C@@H]4C3)cc(-c3nc(C(F)(F)F)cs3)nc2c1C , please.
-- reply 7240
